All values here come from patent US20210253725A1.

Reported Cellular binding assay [RFU] by item:
Target Or System: T1, CD27 expressed on the cell surface of HT1080_CD27 cells (human, UniProt P26842 20-260)
T1 construct: whole, on cells; species not restated for the HT1080 transfectant
T1 sequence (looked up): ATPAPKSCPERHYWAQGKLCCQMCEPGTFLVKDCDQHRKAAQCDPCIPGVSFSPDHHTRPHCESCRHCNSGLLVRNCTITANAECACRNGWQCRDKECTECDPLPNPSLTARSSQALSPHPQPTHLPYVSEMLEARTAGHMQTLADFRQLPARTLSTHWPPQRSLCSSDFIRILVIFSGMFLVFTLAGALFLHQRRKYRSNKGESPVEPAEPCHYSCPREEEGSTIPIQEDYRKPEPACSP
Assay Explanation: HT1080_CD27 cells, imaging; note: test concentration or dose not given here
Please give a number only; it is taken to be in RFU.

Solved cases (2 shown):
INSERT INTO results (binder, reading) VALUES
  ('P018.S.07.A.D05 (antibody, V domains shown, V regions on human Ig constant parts; also called AB27_124) VH: QSLEESGGDLVKPEGSLTLTCTASGFSFSSSYWICWVRQAPGKGLEWIGCMITGRGNTYYATWAKGRFTISKTSSTTVTLQMTSLTAADTATYFCARGPGGADPINLWGPGTLVTVSS VL: DVVMTQTPASVSEPVGGTVTIKCQASQNIYNNLAWYQQKPGQPPKLLIYLASTLASGVPSRFEGSGSGTEFTLTISGVQSDDAATYYCQSTYDGSSYVPNAFGGGTEVVVK', 329),
  ('P018.S.07.A.A02 (antibody, V domains shown, V regions on human Ig constant parts; also called AB27_113) VH: QSVEESGGRLVTPGTPLTLTCTVSGFSLSSYVMSWVRQAPGKGLEWIGYIDYGGAPYYASWAKGRFTISKTSTTVELKITSPTIEDTATYFCARGGYGGYVLVTVLWGPGTLVTVSS VL: DVVMTQTPASVSEPVGGTVTIKCQASQNIYSSLAWYQQKPGQPPKLLIYQASRLASEVPSRFKGSGSGTEFTLTISDLESADAATYYCQTYYGGSTYGNGFGGGTEVVVE', 314);

Asked: # lookup: Cellular binding assay [RFU] of P018.S.01.A.A06 (antibody, V domains shown, V regions on human Ig constant parts; also called AB27_3) VH: QSVEESGGRLVTPGTPLTLTCTVSGIDLSTYAMSWVRQAPGKGLEWIGIIYGSGYTYYASWAKGRATISKTSSTTVDLKITSPTTEDTATYFCASGYGISSGNFLHFNLWGQGTLVTVSS VL: AYDMTQTPASVEVAVGGTVTIKCQASESIYFNLAWYQQKPGQRPKLLIYRASTLASGVSSRFKGSGSGTQFTLTISGVESADAATYYCQQGYDSSHIDNAFGGGTEVVVT
Given back: 287
